target: Epidermal growth factor receptor (Homo sapiens) (UniProt P00533); assay: compounds binding epidermal growth factor receptor – biochemical, small-molecule microarray, 635 nm fluorescence, primary screen (AID 1104); details: EGFR binding, higher = more signal;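 also: score merges 667 nm emission intensity with spot signal to noise over triplicate slides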
Sequence (P00533 whole entry, looked up): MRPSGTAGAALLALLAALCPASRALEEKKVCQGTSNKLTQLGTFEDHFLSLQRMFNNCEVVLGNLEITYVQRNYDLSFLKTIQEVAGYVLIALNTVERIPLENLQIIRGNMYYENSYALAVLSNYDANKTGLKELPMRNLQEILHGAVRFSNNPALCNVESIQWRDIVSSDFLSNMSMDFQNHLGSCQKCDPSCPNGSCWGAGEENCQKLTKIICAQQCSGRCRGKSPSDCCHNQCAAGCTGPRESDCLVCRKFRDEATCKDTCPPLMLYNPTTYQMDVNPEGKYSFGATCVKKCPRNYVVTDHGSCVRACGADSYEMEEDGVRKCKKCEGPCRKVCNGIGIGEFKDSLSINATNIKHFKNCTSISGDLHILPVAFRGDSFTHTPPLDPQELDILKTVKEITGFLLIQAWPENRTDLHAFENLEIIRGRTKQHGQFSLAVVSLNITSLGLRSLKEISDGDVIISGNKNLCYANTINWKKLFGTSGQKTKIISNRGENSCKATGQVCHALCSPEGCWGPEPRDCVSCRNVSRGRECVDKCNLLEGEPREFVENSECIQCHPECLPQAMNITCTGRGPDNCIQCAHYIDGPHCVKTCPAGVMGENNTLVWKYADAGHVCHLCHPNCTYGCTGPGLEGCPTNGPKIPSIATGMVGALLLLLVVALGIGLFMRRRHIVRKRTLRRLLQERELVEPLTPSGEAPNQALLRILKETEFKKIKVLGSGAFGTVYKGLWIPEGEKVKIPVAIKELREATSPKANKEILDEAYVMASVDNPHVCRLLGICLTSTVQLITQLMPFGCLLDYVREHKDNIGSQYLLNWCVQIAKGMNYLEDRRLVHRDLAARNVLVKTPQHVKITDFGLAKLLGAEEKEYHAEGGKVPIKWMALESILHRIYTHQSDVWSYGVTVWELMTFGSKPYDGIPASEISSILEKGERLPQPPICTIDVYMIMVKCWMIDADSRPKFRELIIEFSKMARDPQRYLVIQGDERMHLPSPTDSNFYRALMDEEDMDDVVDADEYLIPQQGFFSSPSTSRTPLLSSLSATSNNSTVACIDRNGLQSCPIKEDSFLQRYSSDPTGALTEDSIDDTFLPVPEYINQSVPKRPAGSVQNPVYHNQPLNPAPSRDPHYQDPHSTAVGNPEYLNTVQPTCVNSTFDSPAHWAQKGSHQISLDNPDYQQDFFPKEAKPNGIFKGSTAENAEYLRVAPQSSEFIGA
measured-property: composite z-score
Field format: numeric only.

Before answering, review these 3 worked examples.
CC(C)NC(=O)[C@@H]1c2ccccc2C(=O)N(C(C)C)[C@H]1c1ccc(CO)cc1    -1
[N-]=[N+]=Nc1ccccc1C[C@]1(C(=O)N2CCCCC2)COC(c2ccc(OCCCO)cc2)=N1    -0.214
CN1C(=O)C2C=CC(C(O)C=Cc3ccc([N+](=O)[O-])cc3)N(Nc3ccccc3)C2C1=O (stereo not given)    0.692

Qu. Look at this molecule and give its reported composite z-score. CC(C)[Si](C#CCCCC#N)(Oc1ccccc1Br)C(C)C
Ans. 0.216

Qu. Thanks! And C=CCN1Cc2ccccc2[C@@H]2OC(c3ccc(OCCCO)cc3)=N[C@]2(CCS(=O)(=O)c2ccccc2)C1=O ?
Ans. 1.01

* * *

target: Calmodulin-1 (Homo sapiens) (UniProt P0DP23); assay: small molecules binding Ca-loaded calmodulin-1 – biochemical, small-molecule microarray, Cy5-labelled CALM1, plus calcium, artefact control for SMM control-protein annotation, profiling panel (AID 1112); details: Cy5-CALM1 binding fluorescence, higher = more signal;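 also: score merges spot fluorescence with signal to noise from triplicate slides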
1 (yes) means recorded composite z-score is 0.3 or above; 0 (no) means it is below 0.3.

Use the examples below as a reference point.
O=C(O)[C@@]1(CCS(=O)(=O)c2ccccc2)N=C(c2ccc(OCCCO)cc2)O[C@H]1c1ccccc1    1 (yes)
COC(=O)[C@H](Cc1ccccc1)N[C@H](/C=C/C1CC1)[C@@H](O)Cc1ccccc1    0 (no)
C=CCC(OC(C)=O)[C@@H]1[C@@H](N(Cc2ccc(-c3ccccc3)cc2)C(=O)Cc2ccc(F)cc2)c2cc(OCCCO)ccc2N1C(=O)c1ccc2ccccc2c1 (stereo partly drawn)    0 (no)
CCC(CC)C(O)C1C=CC2C(=O)N(c3ccccc3)C(=O)C2N1Nc1ccccc1 (stereo not drawn)    1 (yes)

Qu. Decide: composite z-score of CCCCCN1CC=CC23O[C@@H]4C=CCOC(=O)[C@@H]4[C@H]2C(=O)N(C(C)CO)[C@@H]3C1=O (stereo partly drawn) >= 0.3?
Ans. 0 (no)

* * *

assay: probe aXIP binding to arrayed compounds – biochemical, NeuroSMM set, 635/667 nm fluorescence, primary screen (AID 1119); conditions: small-molecule microarray, higher = more signal, called active from +8 up or from −8 down;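 also: probe is the protein aXip251-270 applied at 1 µg/mL to compound-printed slides; binding of probe to printed compounds measured as 667 nm fluorescence plus signal to noise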
Recorded composite Z-score by entry
Field format: numeric only.

Qu. Look at this molecule and give its reported composite Z-score. COCCCNC(=O)[C@@]1(CCS(=O)(=O)c2ccccc2)N=C(c2ccc(OCCCO)cc2)O[C@H]1c1ccccc1N=[N+]=[N-]
Ans. 0.164

Qu. Thanks! And COC(=O)[C@@]1(Cc2ccccc2)[C@H]2c3cc(C(=O)N(C)C)n(Cc4ccc(OC)c(OC)c4)c3C[C@H]2CN1C(=O)c1ccccc1 ?
Ans. 0.0388

Qu. Thanks! And CC1CC/C=C\[C@H]2OC34C=CCN(Cn5nnc6ccccc65)C(=O)[C@H]3N(CCCCCO)C(=O)[C@@H]4C2C(=O)O1 (some centres undefined) ?
Ans. 0.19

Qu. Thanks! And O=C(NCc1ccccc1)[C@@H]1c2ccccc2C(=O)N(C2Cc3ccccc3C2)[C@H]1c1ccc(CO)cc1 ?
Ans. 0.0702
